Parameter pEC50: see the listing below.
target: Peroxisome proliferator-activated receptor gamma (Homo sapiens, UniProt P37231); assay: Agonist activity at GAL4-fused human PPAR-gamma transfected in African green monkey COS7 cells assessed transcriptional activation incubated for 16 hrs by Luciferase assay; format: cell-based
Sequence (P37231 whole entry, the tested form may be a part): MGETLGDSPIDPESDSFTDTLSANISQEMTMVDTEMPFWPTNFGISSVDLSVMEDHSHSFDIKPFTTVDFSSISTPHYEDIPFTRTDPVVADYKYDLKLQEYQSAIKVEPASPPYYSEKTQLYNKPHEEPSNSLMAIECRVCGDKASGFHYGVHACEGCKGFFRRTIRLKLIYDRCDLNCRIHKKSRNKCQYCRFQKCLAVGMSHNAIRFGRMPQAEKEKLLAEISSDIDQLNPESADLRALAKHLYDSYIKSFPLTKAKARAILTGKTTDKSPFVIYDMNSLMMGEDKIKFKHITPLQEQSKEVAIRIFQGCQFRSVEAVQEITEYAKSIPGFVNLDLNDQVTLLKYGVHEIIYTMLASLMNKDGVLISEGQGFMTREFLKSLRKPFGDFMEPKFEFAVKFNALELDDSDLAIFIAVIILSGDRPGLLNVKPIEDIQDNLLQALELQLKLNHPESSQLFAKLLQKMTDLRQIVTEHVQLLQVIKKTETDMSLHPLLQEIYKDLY
On this scale, pEC50 is minus log10 of a concentration expressed in M (mol/L).

Please review the entries below; each comes with its answer.
Give pEC50; test system Peroxisome proliferator-activated receptor gamma (Homo sapiens, UniProt P37231); compound `COc1ccc(N2CCN(Cc3cc(C)c(OC(C)(C)C(=O)O)c(C)c3)C2=O)cc1`
5.59

Give pEC50; test system Peroxisome proliferator-activated receptor gamma (Homo sapiens, UniProt P37231); compound `Cc1cc(CN2CCN(c3cccc(C(F)(F)F)c3)C2=O)cc(C)c1OC(C)(C)C(=O)O`
6.05

Give pEC50; test system Peroxisome proliferator-activated receptor gamma (Homo sapiens, UniProt P37231); compound `CSc1ccc(C(=O)/C=C/c2cc(C)c(OC(C)(C)C(=O)O)c(C)c2)cc1`
5.81

Give pEC50; test system Peroxisome proliferator-activated receptor gamma (Homo sapiens, UniProt P37231); compound `Cc1ccc(N2CCN(Cc3cc(C)c(OC(C)(C)C(=O)O)c(C)c3)C2=O)cc1`
5.92

Give pEC50; test system Peroxisome proliferator-activated receptor gamma (Homo sapiens, UniProt P37231); compound `CCc1ccc(N2CCN(Cc3cc(C)c(OC(C)(C)C(=O)O)c(C)c3)C2=O)cc1`
5.89

Give pEC50; test system Peroxisome proliferator-activated receptor gamma (Homo sapiens, UniProt P37231); compound `Cc1cc(CN2CCN(c3ccc(F)cc3)C2=O)cc(C)c1OC(C)(C)C(=O)O`
5.67

Next:
Give pEC50; test system Peroxisome proliferator-activated receptor gamma (Homo sapiens, UniProt P37231); compound `Cc1cc(CN2CCN(c3ccc(OC(F)(F)F)cc3)C2=O)cc(C)c1OC(C)(C)C(=O)O`
6.38
